The following binders are shown together with reported median fluorescence values.
- measured.target: FZD7 cysteine-rich domain (CRD), MYC-tagged and GPI-anchored on CHO cells (human, UniProt O75084 45-169)
- assay.text: flow cytometry, CHO-CRD cells;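 also: flow cytometry of Fab binding to CHO cells overexpressing a Frizzled CRD, with binding defined as median fluorescence over twice that of CHO cells lacking any Frizzled CRD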
experimental.readout: median fluorescence

1) Fab-2935 (Fab, V domains shown, Fab; also called Fv-2935) VH: EVQLVESGGGLVQPGGSLRLSCAASGFNIYYYYIHWVRQAPGKGLEWVASIYPSSGSTSYADSVKGRFTISADTSKNTAYLQMNSLRAEDTAVYYCARAAFDYWGQGTLVTVSS VL: DIQMTQSPSSLSASVGDRVTITCRASQSVSSAVAWYQQKPGKAPKLLIYSASSLYSGVPSRFSGSRSGTDFTLTISSLQPEDFATYYCQQWYGGYALITFGQGTKVEIK = 3
2) Fab-2921 (Fab, V domains shown, Fab) VH: EVQLVESGGGLVQPGGSLRLSCAASGFNISYYYIHWVRQAPGKGLEWVASIYPSSGSTSYADSVKGRFTISADTSKNTAYLQMNSLRAEDTAVYYCARGAMDYWGQGTLVTVSS VL: DIQMTQSPSSLSASVGDRVTITCRASQSVSSAVAWYQQKPGKAPKLLIYSASSLYSGVPSRFSGSRSGTDFTLTISSLQPEDFATYYCQQWYAGSLITFGQGTKVEIK = 4.37
3) Fab-2936 (Fab, V domains shown, Fab; also called Fv-2936) VH: EVQLVESGGGLVQPGGSLRLSCAASGFNISYYYMHWVRQAPGKGLEWVASIYSSSGSTSYADSVKGRFTISADTSKNTAYLQMNSLRAEDTAVYYCARAAMDYWGQGTLVTVSS VL: DIQMTQSPSSLSASVGDRVTITCRASQSVSSAVAWYQQKPGKAPKLLIYSASSLYSGVPSRFSGSRSGTDFTLTISSLQPEDFATYYCQQWYAASLITFGQGTKVEIK = 2.55
